Molecular target: sortilin (Homo sapiens)
Construct: The extracellular Vps10p domain of sortilin was overexpressed in HEK293F cells and purified from the medium
Sequence (Q99523 78-755 limits assumed): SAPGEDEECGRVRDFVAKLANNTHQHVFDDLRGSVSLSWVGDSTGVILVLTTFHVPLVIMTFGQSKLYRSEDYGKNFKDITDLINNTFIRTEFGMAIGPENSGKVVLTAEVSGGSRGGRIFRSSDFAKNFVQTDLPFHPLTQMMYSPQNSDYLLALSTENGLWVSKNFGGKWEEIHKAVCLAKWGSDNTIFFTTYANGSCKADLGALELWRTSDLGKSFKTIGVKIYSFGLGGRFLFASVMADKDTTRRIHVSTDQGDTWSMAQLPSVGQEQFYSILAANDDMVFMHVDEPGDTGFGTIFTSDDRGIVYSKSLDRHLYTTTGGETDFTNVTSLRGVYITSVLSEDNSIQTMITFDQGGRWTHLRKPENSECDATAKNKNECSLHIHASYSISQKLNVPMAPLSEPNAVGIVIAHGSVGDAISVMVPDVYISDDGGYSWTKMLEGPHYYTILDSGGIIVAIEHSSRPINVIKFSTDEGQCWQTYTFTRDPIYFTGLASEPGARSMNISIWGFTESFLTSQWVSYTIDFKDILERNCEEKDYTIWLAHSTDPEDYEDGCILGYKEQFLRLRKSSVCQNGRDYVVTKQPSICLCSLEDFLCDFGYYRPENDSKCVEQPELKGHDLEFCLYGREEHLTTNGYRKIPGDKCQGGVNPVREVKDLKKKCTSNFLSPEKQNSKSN
Test: 3H-neurotensin-binding sortilin scintillation proximity assay (SPA)
Details: 150 nM sortilin, 5 nM 3H-neurotensin; averages of at least four determinations; read-out: IC50 (displacement of 3H-neurotensin binding to sortilin)
Measured pIC50 by item
// returns pIC50 (minus log10 of molar concentration), number only

Answered cases to consult:
MOLECULE	MEASURED_TARGET	pIC50
Cc1cc(=O)oc2c(CNC(CC(C)C)C(=O)O)c(O)ccc12 (stereo not shown) [Compound 1a]	sortilin (Homo sapiens)	5.74
CCC(C)C(NCc1c(O)ccc2c(C)cc(=O)oc12)C(=O)O (stereo not shown) [Compound 1b]	sortilin (Homo sapiens)	5.21

// pIC50 lookup, key: Cc1cc(=O)oc2c(CNC(CC(C)(C)C)C(=O)O)c(O)ccc12 (stereo not shown) [Compound 1c] 5.51

These entries and their values trace back to paper PMC3940197.
